- Test system: Mycobacterium tuberculosis
- measurement description: Cornell - Phenotypic assay to identify agents that inhibit growth of Mycobacterium tuberculosis
- Assay type: functional
- Set-up: scale not given: direction of the effect not stated beside the values
- experimental conditions: 10 mM as filed; unlikely as a test dose
About 900 (1.7%) of roughly 53,000 compounds showed an effect of 50% or more. The full list was thinned out, with strong results kept by preference.
Friendly reminder: Percent Effect below 10% is 1 (yes), at or above is 0 (no).

Here's what some known entries look like.
{"columns": ["compound", "class name"],
 "data": [
  ["Cc1nc(C)c2c(n1)CCN(Cc1ccco1)CC2", "1 (yes)"],
  ["CN1CCC(NC(=O)Nc2ccc(F)c(-n3cccc3)c2)C1=O (configuration not stated)", "0 (no)"],
  ["COc1cc(NCc2ncc[nH]2)ccc1Br", "1 (yes)"],
  ["Cc1cc2nc(C(C)C)cc(N3CCC(O)CC3)n2n1", "1 (yes)"],
  ["CN1CCC(NC(=O)Nc2ccc(F)c(Br)c2)C1=O (configuration not stated)", "1 (yes)"]
]}

Below: the item to evaluate.
Please let me know if CCC(CN1CCCC1)n1cncc1-c1cnn(Cc2ccccc2)c1.Cl (configuration not stated) shows Percent Effect below 10%.
0 (no)

----------
- System: Mycobacterium tuberculosis
- measurement description: Cornell - Phenotypic assay to identify agents that inhibit growth of Mycobacterium tuberculosis
- Type: functional
- Parameters: scale not given: direction of the effect not stated beside the values
- experimental conditions: 10 mM as filed; unlikely as a test dose
The campaign covered roughly 53,000 compounds. About 900 (1.7%) showed an effect of 50% or more. The sample holds strong results, similar compounds and a random draw of the others, so the mix is not that of the screen.
Answer each item with its documented Percent Effect.
One number for each entry, in %.

As a guide, the following entries are already answered.
{"columns": ["compound", "Percent Effect, %"],
 "data": [
  ["Cl.O=C(CCN1CCCCC1)Nc1c2c(cc3c1CCC3)CCC2", -6.194],
  ["COc1ccc(-c2nc(CN3CC(n4cc(C)cn4)C3)no2)cc1", 55],
  ["Cc1cccnc1[C@H](C)Nc1nc(-c2cccnc2)nc2c1CNC2", 56.46],
  ["CN(C)Cc1cc(=O)n2c(n1)CN(C(=O)c1ccc[nH]1)CCC2.O=C(O)C(F)(F)F", -35.4],
  ["Cc1cc(NCc2cccc(C#N)c2)ccc1C(N)=O", 38.13],
  ["COc1ccc(-c2nc(CN3CC(n4nc(C)cc4C)C3)no2)cc1", 46.41]
]}

Please supply Percent Effect for each of the following items, keeping them in order.
1. COc1ccc(-c2noc(CN3CC(n4cc(C)cn4)C3)n2)cc1
2. CCOc1ccnc(N2CCN(C(=O)c3cccnc3)CC2)n1
3. CC(c1ccc(F)cc1F)N1CCN(CCC(=O)NC(N)=O)CC1 (stereo not drawn)

[22.62, -18.66, -2.983]

----------
- Test system: Mycobacterium tuberculosis
- measurement description: Cornell - Phenotypic assay to identify agents that inhibit growth of Mycobacterium tuberculosis
- Format: functional
- Set-up: scale not given: direction of the effect not stated beside the values
- experimental conditions: 10 mM as filed; unlikely as a test dose
Screen size: about 53,000 compounds; about 900 (1.7%) showed an effect of 50% or more. This excerpt belongs to a sample that is enriched for strong results.
Lab note: anything with Percent Effect below 50% is marked rule met; values at 50% or higher are marked rule not met.

The examples below pair each entry with its known result.
{"columns": ["compound", "tested system", "class name"],
 "data": [
  ["COc1cc(OC)cc(-c2noc(CC(N)c3ccccc3)n2)c1 (stereo not given)", "Mycobacterium tuberculosis", "rule not met"],
  ["CC(C)(C)c1cc(NC(=O)CNC2CCc3ncnn3C2)on1 (stereo not given)", "Mycobacterium tuberculosis", "rule met"],
  ["Cc1ncccc1-c1cc2cccnc2n1CCCNC(=O)C1CC1.Cl", "Mycobacterium tuberculosis", "rule met"],
  ["CCCc1nc(C)c(C(=O)NCCN2CCN(CC)CC2)s1", "Mycobacterium tuberculosis", "rule met"],
  ["CN(Cc1ccncn1)c1nccc(CCC(F)(F)F)n1", "Mycobacterium tuberculosis", "rule met"]
]}

Please turn your attention to the following entry.
Given Cc1[nH]/c(=N\C(=O)c2csc(NC3CCCC3)n2)sc1C , is recorded Percent Effect strictly lower than 50%?
rule not met
